# Target Or System: KDR (baculovirus expressed human KDR kinase domain D807-V1356) (Homo sapiens, UniProt P35968);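 further: Luciferase-coupled chemiluminescent kinase assay, activity read as percent ATP left after 4 h reaction at ambient temperature, ATP near KM, 10-point dose-response in 384-well plates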
# Construct: human KDR kinase domain D807-V1356; host or cells: baculovirus expression
# Sequence (P35968 807-1356): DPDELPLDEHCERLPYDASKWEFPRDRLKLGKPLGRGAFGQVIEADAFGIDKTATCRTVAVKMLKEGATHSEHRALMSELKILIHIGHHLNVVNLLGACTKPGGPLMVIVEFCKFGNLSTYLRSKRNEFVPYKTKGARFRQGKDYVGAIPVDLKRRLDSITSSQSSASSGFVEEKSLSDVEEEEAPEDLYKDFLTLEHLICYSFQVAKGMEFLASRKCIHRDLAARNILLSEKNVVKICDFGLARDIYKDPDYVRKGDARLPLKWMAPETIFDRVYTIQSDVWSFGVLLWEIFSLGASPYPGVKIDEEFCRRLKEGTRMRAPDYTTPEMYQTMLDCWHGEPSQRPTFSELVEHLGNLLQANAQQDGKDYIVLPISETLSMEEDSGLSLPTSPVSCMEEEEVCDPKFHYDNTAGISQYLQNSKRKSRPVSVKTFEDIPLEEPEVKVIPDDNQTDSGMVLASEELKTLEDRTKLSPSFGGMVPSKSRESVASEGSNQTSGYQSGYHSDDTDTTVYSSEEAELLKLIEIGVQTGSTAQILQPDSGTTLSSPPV
# Assay Procedure: biochemical
pIC50: −log10 of the molar value.
Property Label: pIC50

Req: For COc1cc2c(Oc3ccc(NC(=O)[C@]4(C(=O)Nc5ccc(F)cc5)C[C@H]4C)cc3F)ccnc2cc1OCCCN1CCOCC1 , what is its reported pIC50?
Resp: > 7.30

Req: For COc1cc2c(Oc3ccc(NC(=O)C4(C(=O)Nc5ccc(F)cc5)CC4)c(C)c3)ccnc2cc1OCCCN1CCOCC1 , what is its reported pIC50?
Resp: > 7.30

Req: For COc1cc2c(Oc3ccc(NC(=O)[C@]4(C(=O)Nc5ccc(F)cc5)C[C@@H]4C)cc3F)ccnc2cc1OCCCN1CCN(C)CC1 , what is its reported pIC50?
Resp: > 7.30

Req: For CCN(CC)CCCOc1cc2nccc(Oc3ccc(NC(=O)[C@]4(C(=O)Nc5ccc(F)cc5)C[C@@H]4C)cc3F)c2cc1OC , what is its reported pIC50?
Resp: > 7.30

Req: For COc1cc2nccc(Oc3ccc(NC(=O)C4(C(=O)Nc5ccc(F)cc5)CC4)c(C)c3)c2cc1OC , what is its reported pIC50?
Resp: > 7.30

Req: For COc1cc2nccc(Oc3ccc(NC(=O)C4(C(=O)Nc5ccc(F)cc5)CNC4)cc3)c2cc1OC , what is its reported pIC50?
Resp: 5.30 to 6.30

Req: For CCNC(=O)C(=O)Nc1ccc(Oc2ccnc3cc(OCC4CCNCC4)c(OC)cc23)c(F)c1 , what is its reported pIC50?
Resp: 6.30 to 7.30

Req: For COc1cc2c(Oc3ccc(NC(=O)C4(C(=O)Nc5ccc(F)cc5)CC4)cc3)ccnc2cc1OCCCN1CCOCC1 , what is its reported pIC50?
Resp: > 7.30

Req: For COc1cc2c(Oc3ccc(NC(=O)[C@]4(C(=O)Nc5ccc(F)cc5)C[C@H]4C)cc3F)ccnc2cc1OCCCN1CCN(C)CC1 , what is its reported pIC50?
Resp: > 7.30

Req: For COc1cc2nccc(Oc3ccc(NC(=O)C4(C(=O)Nc5cccc(CN)c5)CC4)cc3)c2cc1OC , what is its reported pIC50?
Resp: > 7.30

Req: For CCN(CC)CCOc1cc2nccc(Oc3ccc(NC(=O)C4(C(=O)Nc5ccc(F)cc5)[C@H](C)[C@H]4C)cc3F)c2cc1OC (stereo partly shown) , what is its reported pIC50?
Resp: > 7.30

Req: For CCN(CC)CCCOc1cc2c(Oc3ccc(NC(=O)C4(C(=O)Nc5ccc(F)cc5)CC4)cc3F)ccnc2cc1OC , what is its reported pIC50?
Resp: > 7.30

Req: For COc1cc2c(Oc3ccc(NC(=O)C4(C(=O)Nc5ccc(F)cc5)CCC4)cc3F)ncnc2cc1OCCCN1CCOCC1 , what is its reported pIC50?
Resp: > 7.30

Req: For COc1cc2nccc(Oc3ccc(NC(=O)C4(C(=O)Nc5ccccc5CN5CCCC5)CC4)cc3)c2cc1OC , what is its reported pIC50?
Resp: 5.30 to 6.30

Req: For COc1cc2c(Oc3ccc(NC(=O)[C@@]4(C(=O)Nc5ccc(F)cc5)C[C@H]4C)cc3F)ccnc2cc1OCCCN1CCOCC1 , what is its reported pIC50?
Resp: > 7.30

Req: For CCN(CC)CCCOc1cc2ncnc(Oc3ccc(NC(=O)[C@]4(C(=O)Nc5ccc(F)cc5)C[C@H]4C)cc3F)c2cc1OC , what is its reported pIC50?
Resp: > 7.30
